sequences and their reported shrunken log2 fold change
tested on: Escherichia coli TOP10; test: shrunken log2 fold change of peptide-encoding DNA abundance (4.5 h post-induction vs induction); higher = less antimicrobial activity (less host growth inhibition); settings: time post-induction: 4.5 h; library: site-saturation at positions 5, 18, 19, 20

Completed entries (count: 2):
>>> result("RRIRNRPPRLPRPRPRPEESPRP")
0.013
>>> result("RRIRNRPPRLPRPRPRPCLGPRP")
-0.219

In: GET /values?readout=shrunken log2 fold change&item= RRIRGRPPRLPRPRPRPHSRPRP
Out: 0.26

In: Tell me the measured shrunken log2 fold change of RRIRDRPPRLPRPRPRPVWNPRP , please.
Out: 0.00745

In: Look up shrunken log2 fold change for this sequence: RRIRLRPPRLPRPRPRPPHIPRP
Out: 0.0882

In: // lookup shrunken log2 fold change for RRIRRRPPRLPRPRPRPCREPRP
Out: 0.0134

In: Value lookup for shrunken log2 fold change; key = RRIRLRPPRLPRPRPRPHDMPRP
Out: -0.117

In: Which shrunken log2 fold change is reported for this sequence? RRIRIRPPRLPRPRPRPENIPRP
Out: -0.106

* * *

system: Escherichia coli TOP10; assay: shrunken log2 fold change of peptide-encoding DNA abundance (4.5 h post-induction vs induction); higher = less antimicrobial activity (less host growth inhibition); conditions: time post-induction: 4.5 h; library: site-saturation at positions 5, 18, 19, 20
reported-endpoint: shrunken log2 fold change

>>> result("RRIRPRPPRLPRPRPRPTPQPRP")
0.497

In: Param item = RRIRIRPPRLPRPRPRPCAPPRP ; retrieve measured shrunken log2 fold change.
Out: -0.506

In: Name the reported shrunken log2 fold change value associated with the sequence RRIRTRPPRLPRPRPRPAQPPRP
Out: 0.00354

In: Which shrunken log2 fold change is listed for RRIRQRPPRLPRPRPRPLCSPRP ?
Out: -0.0385

In: Dear colleague, I am looking for the recorded shrunken log2 fold change of the following sequence: RRIRYRPPRLPRPRPRPFEPPRP
Out: -0.343

In: So what does the record say about shrunken log2 fold change for RRIRLRPPRLPRPRPRPYYLPRP ?
Out: -0.477

In: Entry RRIRGRPPRLPRPRPRPDIIPRP : reported shrunken log2 fold change = ?
Out: 0.188

In: // lookup shrunken log2 fold change for RRIRLRPPRLPRPRPRPTRLPRP
Out: 0.432

In: Reported shrunken log2 fold change for RRIRNRPPRLPRPRPRPVCDPRP : what is it?
Out: 0.0842

In: Item RRIRARPPRLPRPRPRPEDTPRP has what recorded shrunken log2 fold change?
Out: 0.625

* * *

tested on: Escherichia coli TOP10; assay: shrunken log2 fold change of peptide-encoding DNA abundance (4.5 h post-induction vs induction); higher = less antimicrobial activity (less host growth inhibition); conditions: time post-induction: 4.5 h; library: site-saturation at positions 5, 18, 19, 20
Consider the following sequences and their measured shrunken log2 fold change readings.

Below are worked cases with known answers.
>>> result("RRIRDRPPRLPRPRPRPDSDPRP")
0.0999
>>> result("RRIRKRPPRLPRPRPRPYALPRP")
-0.119
>>> result("RRIRHRPPRLPRPRPRPYKYPRP")
-0.128
>>> result("RRIRGRPPRLPRPRPRPQEKPRP")
0.0562
>>> result("RRIRIRPPRLPRPRPRPYGMPRP")
-0.354

In: Entry RRIRTRPPRLPRPRPRPMGYPRP has what shrunken log2 fold change?
Out: 0.0627

In: Requested field: shrunken log2 fold change. Item: RRIRFRPPRLPRPRPRPFGCPRP
Out: -0.0616

In: I'd like to know its shrunken log2 fold change. The sequence in question is RRIRTRPPRLPRPRPRPVDWPRP
Out: 0.0292

* * *

test system: Escherichia coli TOP10; assay: shrunken log2 fold change of peptide-encoding DNA abundance (4.5 h post-induction vs induction); higher = less antimicrobial activity (less host growth inhibition); details: time post-induction: 4.5 h; library: site-saturation at positions 5, 18, 19, 20
reported-endpoint: shrunken log2 fold change

>>> result("RRIRHRPPRLPRPRPRPLWRPRP")
0.57

In: Please give the measured shrunken log2 fold change for this sequence: RRIRCRPPRLPRPRPRPDIAPRP
Out: 0.38

In: Name the reported shrunken log2 fold change value associated with the sequence RRIRGRPPRLPRPRPRPKLVPRP
Out: 0.326

In: If you can, please state the reported shrunken log2 fold change value of RRIRPRPPRLPRPRPRPHSMPRP .
Out: -0.408

In: Any idea what its shrunken log2 fold change is? The sequence is RRIRQRPPRLPRPRPRPQTKPRP
Out: -0.133

In: Which shrunken log2 fold change reading was recorded for the sequence RRIRPRPPRLPRPRPRPFIHPRP ?
Out: -0.224

In: Looking for the measured shrunken log2 fold change of RRIRNRPPRLPRPRPRPPQIPRP , can you help?
Out: 0.013

In: If you can, please state the reported shrunken log2 fold change value of RRIRKRPPRLPRPRPRPWIHPRP .
Out: -0.145

* * *

system: Escherichia coli TOP10; assay: shrunken log2 fold change of peptide-encoding DNA abundance (4.5 h post-induction vs induction); higher = less antimicrobial activity (less host growth inhibition); conditions: time post-induction: 4.5 h; library: site-saturation at positions 5, 18, 19, 20
Threshold rule: shrunken log2 fold change greater than or equal to -0.2 is 1; below that, 0.

Consider the following illustrative entries.
>>> cat("RRIRNRPPRLPRPRPRPSNFPRP")
0
>>> cat("RRIRTRPPRLPRPRPRPISIPRP")
0
>>> cat("RRIRIRPPRLPRPRPRPAWMPRP")
1
>>> cat("RRIRDRPPRLPRPRPRPPYDPRP")
1

In: Please check the record RRIRYRPPRLPRPRPRPNKAPRP and state if its shrunken log2 fold change is at or above -0.2.
Out: 1

In: # bool: shrunken log2 fold change of RRIRQRPPRLPRPRPRPENHPRP >= -0.2
Out: 1

In: Entry RRIRCRPPRLPRPRPRPRCPPRP : is its shrunken log2 fold change no less than -0.2?
Out: 1

In: Does RRIRQRPPRLPRPRPRPCFHPRP have a reported shrunken log2 fold change of at least -0.2?
Out: 0

In: For this sequence, is measured shrunken log2 fold change -0.2 or higher? RRIRRRPPRLPRPRPRPMIMPRP
Out: 0

* * *

tested on: Escherichia coli TOP10; assay: shrunken log2 fold change of peptide-encoding DNA abundance (4.5 h post-induction vs induction); higher = less antimicrobial activity (less host growth inhibition); settings: time post-induction: 4.5 h; library: site-saturation at positions 5, 18, 19, 20
Binning scheme for shrunken log2 fold change: Low = under -0.06, Mid = from -0.06 up to 0.1, High = 0.1 and over

Use the examples below as a reference point.
>>> cat("RRIRNRPPRLPRPRPRPMFEPRP")
"High"
>>> cat("RRIRGRPPRLPRPRPRPHRRPRP")
"High"
>>> cat("RRIRWRPPRLPRPRPRPMMNPRP")
"Low"
>>> cat("RRIRHRPPRLPRPRPRPRYEPRP")
"Low"
>>> cat("RRIRVRPPRLPRPRPRPICPPRP")
"Low"
>>> cat("RRIRFRPPRLPRPRPRPLVFPRP")
"Low"
>>> cat("RRIRVRPPRLPRPRPRPWTTPRP")
"High"
>>> cat("RRIRYRPPRLPRPRPRPQHYPRP")
"Low"
>>> cat("RRIRFRPPRLPRPRPRPQGRPRP")
"High"
>>> cat("RRIRCRPPRLPRPRPRPKVPPRP")
"Mid"

We now examine a further sequence.
In: Input RRIRTRPPRLPRPRPRPRHVPRP ; output its category
Out: Mid

* * *

system: Escherichia coli TOP10; assay: shrunken log2 fold change of peptide-encoding DNA abundance (4.5 h post-induction vs induction); higher = less antimicrobial activity (less host growth inhibition); settings: time post-induction: 4.5 h; library: site-saturation at positions 5, 18, 19, 20;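 also: peptides expressed intracellularly from a pBAD plasmid library in pooled LB shake-flask culture, induced with 0.3% L-arabinose, DNA abundance read by NGS, three biological replicates, DESeq2 with apeglm shrinkage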
Property: shrunken log2 fold change; scope: individual sequences
// no unit, no text: just the number

>>> quantitative_readout("RRIRPRPPRLPRPRPRPLPMPRP")
0.53
>>> quantitative_readout("RRIRDRPPRLPRPRPRPFQSPRP")
0.0407
>>> quantitative_readout("RRIRPRPPRLPRPRPRPQNYPRP")
-0.395
>>> quantitative_readout("RRIRKRPPRLPRPRPRPSVIPRP")
-0.0922
>>> quantitative_readout("RRIRKRPPRLPRPRPRPSSSPRP")
-0.94
>>> quantitative_readout("RRIRPRPPRLPRPRPRPTGEPRP")
0.396
>>> quantitative_readout("RRIRLRPPRLPRPRPRPTRFPRP")
0.42
>>> quantitative_readout("RRIRWRPPRLPRPRPRPYWAPRP")
-0.298
>>> quantitative_readout("RRIRGRPPRLPRPRPRPHYTPRP")
-0.379
>>> quantitative_readout("RRIRDRPPRLPRPRPRPECMPRP")
1.07

In: Entry under review: RRIRNRPPRLPRPRPRPLSPPRP . Reported shrunken log2 fold change?
Out: -0.215

In: Please give the measured shrunken log2 fold change for this sequence: RRIRSRPPRLPRPRPRPWSGPRP
Out: -0.0339
